Value source: patent US20050197364A1

procedureDetails: Pharmacokinetic profile after intravenous and oral administration
Format: in vivo
testContext: male, Sprague-Dawley, rat, plasma; rats, IV 1 mg/kg and oral 5 mg/kg; read-out: half life (t1/2) (converted)
quantity: half-life (h)
Your answer is read as h, so omit the unit and give the number.

Supply measured half-life of `O=C(Nc1ccc(C(F)(F)F)cc1)c1ccc(-c2ncccc2Cl)cc1` in your reply. 3.71
